# assayExplanation: RPL19A-GFP modulators, yeast TOR pathway, confirmation, cell-based, S. cerevisiae, flow cytometry, cherry picks, mother/daughter gates (AID 2270)
# conditionDescription: S. cerevisiae RPL19A-GFP strain, 3 h, measured here: daughter cell gate, at 10 µM, stronger effect = lower value, 100 = same GFP as DMSO wells
measureName: GFP response vs DMSO (%)
Give the quantity in %, number only.

Use these answered entries as a reference point.
{"compound": "COc1ccc(CC(=O)NCc2ccccn2)cc1OC", "GFP response vs DMSO / %": 97.8}
{"compound": "Cc1nc2c(-c3ccc(F)cc3)cnn2c(N)c1-c1ccccc1", "GFP response vs DMSO / %": 97.9}

Problem: Which measured GFP response vs DMSO value corresponds to "CC1CCN(S(=O)(=O)c2cccc(C(=O)Nc3nccs3)c2)CC1" ?
Result: 101

Problem: Which measured GFP response vs DMSO value corresponds to "CSc1ccc(-c2cc(=O)c3ccccc3o2)cc1" ?
Result: 89.3

Problem: Which measured GFP response vs DMSO value corresponds to "COc1ccc(NC2=C(Cl)C(=O)N(CCc3ccccc3)C2=O)cc1" ?
Result: 99.3

Problem: Which measured GFP response vs DMSO value corresponds to "Cc1ccc(C(=O)NNC(=S)NC(=O)c2ccco2)cc1" ?
Result: 113

Problem: Which measured GFP response vs DMSO value corresponds to "CC(=O)Nc1ccc(-c2csc(NC(=O)c3ccc(C)o3)n2)cc1" ?
Result: 98.1

Problem: Which measured GFP response vs DMSO value corresponds to "Cc1ccc(NC(=O)c2ccccc2)cc1" ?
Result: 99

Problem: Which measured GFP response vs DMSO value corresponds to "Cn1c(=O)c(C(=O)NC2CCCCCCC2)c(O)c2ccccc21" ?
Result: 102

Problem: Which measured GFP response vs DMSO value corresponds to CCOc1ccc2nc(SCC(=O)NCC3CCCO3)c(C#N)cc2c1 (stereo not given) ?
Result: 95.9

Origin of values: PubChem BioAssay
